Assay: In vivo pharmacokinetic evaluation in mouse
Design: species or system C57BL/6 female mice
Conditions: mice, oral gavage 5 mg/Kg
metric name: AUC po (5 mg/Kg) (ng·h/mL)
API: value field is a number in ng·h/mL; no unit string.

Sample records with AUC po (5 mg/Kg):
smiles_repr=CN(C)S(=O)(=O)c1ccc(F)c(C#Cc2cc(Cl)ccc2OCC(=O)O)c1 measured=4880
smiles_repr=CCCS(=O)(=O)c1ccc(C)c(C#Cc2cc(Cl)ccc2OCC(=O)O)c1 measured=3685
smiles_repr=CC(C)S(=O)(=O)c1ccc(Cl)c(C#Cc2cc(Cl)ccc2OCC(=O)O)c1 measured=4889

Fill in: AUC po (5 mg/Kg) of CCCS(=O)(=O)c1cccc(C#Cc2cc(Cl)ccc2OCC(=O)O)c1 is ___ 5768

Data request, read-out AUC po (5 mg/Kg), for CC(C)S(=O)(=O)c1ccc(F)c(C#Cc2cc(Cl)ccc2OCC(=O)O)c1 18691

Could you tell me which AUC po (5 mg/Kg) is on file for O=C(O)COc1ccc(Cl)cc1C#Cc1ccc2c(c1)S(=O)(=O)c1ccccc1-2 ? 30942

Can you look up the measured AUC po (5 mg/Kg) of CCCS(=O)(=O)c1ccc(Cl)c(C#Cc2cc(Cl)ccc2OCC(=O)O)c1 for me? 5795
